Origin of values: patent US20250051338A1

molecular target: TYK2 (Homo sapiens, UniProt P29597); assay: TYK2 degradation MSD assay in EBV-B cells; assay type: cell-based; parameters: endogenous in cells; host or cells: EBV-B cells; details: 4 to 24 hours incubation, read-out: TYK2 MSD DC50 rating in EBV-B
Sequence (P29597 whole entry): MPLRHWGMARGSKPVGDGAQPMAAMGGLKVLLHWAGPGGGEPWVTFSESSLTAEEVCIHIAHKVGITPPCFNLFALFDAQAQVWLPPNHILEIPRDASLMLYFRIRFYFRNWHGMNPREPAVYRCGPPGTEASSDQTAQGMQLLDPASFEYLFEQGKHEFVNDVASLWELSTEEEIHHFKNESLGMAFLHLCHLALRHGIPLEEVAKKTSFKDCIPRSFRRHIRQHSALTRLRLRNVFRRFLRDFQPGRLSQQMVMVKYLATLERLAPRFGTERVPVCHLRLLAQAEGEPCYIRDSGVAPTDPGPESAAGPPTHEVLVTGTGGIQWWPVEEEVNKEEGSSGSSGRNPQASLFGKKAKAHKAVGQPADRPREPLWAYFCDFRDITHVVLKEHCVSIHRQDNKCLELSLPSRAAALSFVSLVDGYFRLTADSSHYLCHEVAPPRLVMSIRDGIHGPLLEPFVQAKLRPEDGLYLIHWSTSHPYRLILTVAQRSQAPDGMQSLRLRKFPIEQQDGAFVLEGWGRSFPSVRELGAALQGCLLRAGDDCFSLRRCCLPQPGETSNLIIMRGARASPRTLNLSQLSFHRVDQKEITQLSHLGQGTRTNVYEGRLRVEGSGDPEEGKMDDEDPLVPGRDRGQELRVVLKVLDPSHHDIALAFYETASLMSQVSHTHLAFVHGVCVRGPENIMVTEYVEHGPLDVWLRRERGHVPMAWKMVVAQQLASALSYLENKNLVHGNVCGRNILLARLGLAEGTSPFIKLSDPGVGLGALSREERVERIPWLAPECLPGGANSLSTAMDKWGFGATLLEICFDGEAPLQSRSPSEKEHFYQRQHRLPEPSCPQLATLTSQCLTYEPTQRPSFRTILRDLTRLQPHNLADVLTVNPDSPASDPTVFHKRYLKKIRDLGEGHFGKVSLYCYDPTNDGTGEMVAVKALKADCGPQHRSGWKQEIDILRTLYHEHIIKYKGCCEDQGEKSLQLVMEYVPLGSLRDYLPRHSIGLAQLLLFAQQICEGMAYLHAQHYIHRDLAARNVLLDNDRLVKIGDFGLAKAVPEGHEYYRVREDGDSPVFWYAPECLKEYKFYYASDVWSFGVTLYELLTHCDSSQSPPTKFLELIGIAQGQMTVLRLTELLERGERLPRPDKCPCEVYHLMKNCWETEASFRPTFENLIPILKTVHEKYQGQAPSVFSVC
Property Label: DC50

Compound	Property Label	Data Value
CNC(=O)c1cnc(Nc2ccc(CN(C)CCCOC3CC(c4ccc5c(c4)n(C)c(=O)n5C4CCC(=O)NC4=O)C3)cn2)cc1Nc1cccc(-c2ncc(F)cn2)c1OC (stereo not shown) [Example K148]	DC50	< 1 nM

I need DC50 for every entry listed below, if you could help.
1. CNc1cc(-c2cccc(C(=O)NCCCCCCCCc3ccc4c(c3)n(C)c(=O)n4C3CCC(=O)NC3=O)c2)nn2c(C(=O)NC3C[C@@H]3F)cnc12 (stereo partly shown) [Example K309]
2. CNC(=O)c1cnc(Nc2ccc(CN3CCC4(CC3)CC(Cc3ccc5c(c3)n(C)c(=O)n5C3CCC(=O)NC3=O)C4)cn2)cc1Nc1cccc(-c2ncc(F)cn2)c1OC (stereo not shown) [Example K144]
3. CNc1cc(Nc2cccn(-c3ccc(C(=O)N4CCN(CC#Cc5ccc6c(c5)n(C)c(=O)n6C5CCC(=O)NC5=O)CC4)cn3)c2=O)nn2c(C(=O)N[C@@H]3C[C@@H]3F)cnc12 (stereo partly shown) [Example K417]
4. CNc1cc(Nc2cccn(-c3cccc(C(=O)NCCCCc4ccc5c(c4)n(C)c(=O)n5C4CCC(=O)NC4=O)c3)c2=O)nn2c(C(=O)N[C@@H]3C[C@@H]3F)cnc12 (stereo partly shown) [Example K219]
5. CNc1cc(Nc2cccc(CN3CCC4(CC3)CCN(c3ccc5c(c3)[nH]c(=O)n5C3CCC(=O)NC3=O)C4)c2)nn2c(C(=O)NC3CC3)cnc12 (stereo not shown) [Example K601]
6. CNc1cc(Nc2cc(F)cc(-c3ccc(CN4CCN(c5ccc(-c6ccc7c(c6)n(C)c(=O)n7C6CCC(=O)NC6=O)cc5)CC4)cn3)c2OC)nn2c(C(=O)N[C@@H]3C[C@@H]3F)cnc12 (stereo partly shown) [Example K577]
7. CNC(=O)c1cnc(Nc2ccc(CN(C)C3CCN(c4ccc5c(c4)n(C)c(=O)n5C4CCC(=O)NC4=O)CC3)cn2)cc1Nc1cccc(-c2ncc(F)cn2)c1OC (stereo not shown) [Example K155]

### Response
1: > 100 nM; 2: < 1 nM; 3: > 100 nM; 4: > 100 nM; 5: > 100 nM; 6: > 100 nM; 7: < 1 nM

I need DC50 for every entry listed below, if you could help.
1. CNc1cc(Nc2cccn(-c3ccc(C(=O)N4CCC(CN5CCC(c6ccc7c(c6)n(C)c(=O)n7C6CCC(=O)NC6=O)CC5)CC4)cn3)c2=O)nn2c(C(=O)N[C@@H]3C[C@@H]3F)cnc12 (stereo partly shown) [Example K411]
2. CNC(=O)c1cnc(Nc2ccc(CN3CCC(OCC#Cc4ccc5c(c4)n(C)c(=O)n5C4CCC(=O)NC4=O)CC3)cn2)cc1Nc1cccc(-c2ncc(F)cn2)c1OC (stereo not shown) [Example K708]

### Response
> 100 nM
< 1 nM

----------
biological target: UniProt:P29597; test: TYK2 degradation MSD assay in OCI-LY10 cells; type: cell-based; parameters: endogenous in cells; host or cells: EBV-B cells; settings: 4 to 24 hours incubation, read-out: TYK2 MSD DC50 rating in OCI-LY10
Property Label: DC50

Compound	DC50
CNC(=O)c1cnc(Nc2ccc(CN3CCN(CCc4ccc5c(c4)n(C)c(=O)n5C4CCC(=O)NC4=O)CC3)cn2)cc1Nc1cccc(-c2ncc(F)cn2)c1OC (centres unmarked)	> 100 nM

I need DC50 for every entry listed below, if you could help.
1. CNc1cc(Nc2cccc(CN3CCC(CN(C)c4ccc5c(c4)n(C)c(=O)n5C4CCC(=O)NC4=O)CC3)c2)nn2c(C(=O)NC3CC3)cnc12 (centres unmarked)
2. CNc1cc(N2CCCc3c(-c4ccc(CC5CCC(c6ccc(-c7ccc8c(c7)n(C)c(=O)n8C7CCC(=O)NC7=O)cc6)CC5)cn4)cccc32)nn2c(C(=O)N[C@@H]3C[C@@H]3F)cnc12 (some centres unmarked)
3. CNc1cc(Nc2cccc(C3CCN(CC4CCN(c5ccc(-c6cccc7c6n(C)c(=O)n7C6CCC(=O)NC6=O)cc5)CC4)CC3)c2OC)nn2c(C(=O)N[C@@H]3C[C@@H]3F)cnc12 (mixture of isomers)
4. Cn1c(=O)n(C2CCC(=O)NC2=O)c2ccc(CN3CCC(CNc4cc(Nc5cccn(-c6ccccn6)c5=O)nn5c(C(=O)N[C@@H]6C[C@@H]6F)cnc45)CC3)cc21 (some centres unmarked)

### Response
1. > 100 nM
2. 10 to 100 nM
3. > 100 nM
4. > 100 nM
